Numbers sourced from patent US6737383B1.

test system: velvetleaf; test: Test B pre/postemergence velvetleaf; assay type: in vivo, Abutilon theophrasti; conditions: Preemergence, Rate 250 g/ha; scale 0 to 10, 0 is no effect, 10 is complete control
I'd appreciate it if you could supply Velvetleaf plant response rating values for the items below.
Lab note: jot the number down without any unit.

System velvetleaf. Read-out Velvetleaf plant response rating. Item "CC[Si](C)(C)Cn1c(=O)on(C(=O)N(c2ccc(F)cc2)C(C)C)c1=O" . Report value. 0

System velvetleaf. Read-out Velvetleaf plant response rating. Item CC1CC1Cn1c(=O)on(C(=O)N(c2ccc(F)cc2)C(C)C)c1=O (centres unmarked) . Report value. 3

System velvetleaf. Read-out Velvetleaf plant response rating. Item "C=C[Si](C)(C)Cn1c(=O)on(C(=O)N(c2ccc(Cl)cc2)C(C)C)c1=O" . Report value. 2

System velvetleaf. Read-out Velvetleaf plant response rating. Item "CC(C)N(C(=O)n1oc(=O)[nH]c1=O)c1ccc(F)cc1" . Report value. 0

System velvetleaf. Read-out Velvetleaf plant response rating. Item Cc1nc(Cl)sc1C(C)n1c(=O)on(C(=O)N(c2ccccc2)C(C)C)c1=O (centres unmarked) . Report value. 0

System velvetleaf. Read-out Velvetleaf plant response rating. Item "CC(C)N(C(=O)n1oc(=O)n(C(CF)CF)c1=O)c1ccccc1" . Report value. 10

System velvetleaf. Read-out Velvetleaf plant response rating. Item C=CC(OC)n1c(=O)on(C(=O)N(c2ccc(F)cc2)C(C)C)c1=O (centres unmarked) . Report value. 0

System velvetleaf. Read-out Velvetleaf plant response rating. Item "Cc1nc(C)c(-n2c(=O)on(C(=O)N(c3ccccc3)C(C)C)c2=O)s1" . Report value. 0

System velvetleaf. Read-out Velvetleaf plant response rating. Item "CC(C)N(C(=O)n1oc(=O)n(CCC#N)c1=O)c1ccccc1" . Report value. 0

System velvetleaf. Read-out Velvetleaf plant response rating. Item "CC(C)N(C(=O)n1oc(=O)n(CC2CCC2)c1=O)c1ccc(F)cc1" . Report value. 3

System velvetleaf. Read-out Velvetleaf plant response rating. Item "C=CCn1c(=O)on(C(=O)N(c2ccc(F)cc2)C(C)C)c1=O" . Report value. 8

----------
test system: crabgrass; test: Test B pre/postemergence crabgrass; type: in vivo, Digitaria sanguinalis; details: Preemergence, Rate 62 g/ha; scale of 0 to 10 where 0 is no effect and 10 is complete control
ATTRIBUTE MEASURED: Crabgrass plant response rating
Lab note: jot the number down without any unit.

Quick one: give measured Crabgrass plant response rating for "CC(C)N(C(=O)n1oc(=O)n(CC(C)(C)C)c1=O)c1ccccc1" 3

Quick one: give measured Crabgrass plant response rating for CC(C)N(C(=O)n1oc(=O)n(C2CCCC(C(F)(F)F)C2)c1=O)c1ccc(F)cc1 (stereo not shown) 0

Quick one: give measured Crabgrass plant response rating for "CCN(Cc1ccncc1)C(=O)n1oc(=O)n(C(C)C)c1=O" 0

Quick one: give measured Crabgrass plant response rating for "CC(C)N(C(=O)n1oc(=O)n(CF)c1=O)c1ccc(F)cc1" 2

Quick one: give measured Crabgrass plant response rating for "CC(C)N(C(=O)n1oc(=O)n(CC(=O)C2CCC2)c1=O)c1ccc(F)cc1" 3

Quick one: give measured Crabgrass plant response rating for "COc1nc(OC)nc(N(C(=O)n2oc(=O)n(-c3c(C)cccc3C)c2=O)C(C)C)n1" 0

Quick one: give measured Crabgrass plant response rating for "CC(=O)OCn1c(=O)on(C(=O)N(c2ccc(F)cc2)C(C)C)c1=O" 0

Quick one: give measured Crabgrass plant response rating for CC(C)N(C(=O)n1oc(=O)n(C(C)C2CC2)c1=O)c1ccccc1 (stereo not shown) 10

Quick one: give measured Crabgrass plant response rating for "CCN(C(=O)n1oc(=O)n(C)c1=O)C1CCCCC1" 0

Quick one: give measured Crabgrass plant response rating for "CCN(C(=O)n1oc(=O)n(C(C)C)c1=O)c1nncs1" 0
